Data origin, for the record: patent CN113683697A

Molecular target: T1, B7-H3 (4Ig-B7-H3) endogenously expressed on MDA-MB-231 cells (UniProt Q5ZPR3 29-534, limits assumed)
T1 construct: whole, on cells; also called 细胞表面的B7-H3抗原
T1 sequence (looked up): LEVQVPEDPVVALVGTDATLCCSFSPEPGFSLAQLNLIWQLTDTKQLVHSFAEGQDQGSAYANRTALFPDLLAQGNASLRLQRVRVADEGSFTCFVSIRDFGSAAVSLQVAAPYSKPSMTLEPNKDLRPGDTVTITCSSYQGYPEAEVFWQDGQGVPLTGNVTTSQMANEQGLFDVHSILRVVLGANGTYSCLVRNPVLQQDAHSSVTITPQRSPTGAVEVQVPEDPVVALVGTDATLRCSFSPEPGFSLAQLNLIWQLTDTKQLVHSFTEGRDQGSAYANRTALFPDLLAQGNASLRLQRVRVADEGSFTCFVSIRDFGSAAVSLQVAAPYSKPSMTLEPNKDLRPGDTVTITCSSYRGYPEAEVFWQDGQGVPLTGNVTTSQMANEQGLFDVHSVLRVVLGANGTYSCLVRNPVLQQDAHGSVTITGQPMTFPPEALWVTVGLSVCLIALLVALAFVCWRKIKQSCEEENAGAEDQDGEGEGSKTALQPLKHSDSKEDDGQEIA
Experiment: FACS, MDA-MB-231 cells
observation_type: binding result

scFv-27B4-H2-L4 (scFv, VH-linker-VL in phage display vector pXY, expressed in TG1, purified on a nickel column) scFv: QVQLVQSGAEVKKPGSSVKVSCKASGYTFTTYWISWVRQAPGQGLEWMGGIYPGDGGSNYAQKFQGRVTITADESTSTAYMELSSLRSEDTAVYYCARGGNYISFPMYYWGQGTLVTVSSGGGGSGGGGSGGGGSGGGGASEIVLTQSPDFQSVTPKEKVTITCKASRGVSTALHWYQQKPDQSPKLLIKWASQSFSGVPSRFSGSGSGTDFTLTINSLEAEDAATYYCQQHYDTPYTFGQGTKLEIK    binds
h27B4-H4-L3 (antibody, human IgG1, kappa, V domains shown, Whole IgG, humanized; optimized hIgG1 (L235V, F243L, R292P, Y300L, P396L) and human kappa; also called zw.M0883B9.27B4Z02; 27B4Z02分子) VH: EVQLVQSGAEVKKPGESLKISCKASGYTFTTYWIGWVRQMPGKGLEWMGIIYPGDGGSRYSPSFQGQVTISADKSISTAYLQWSSLKASDTAMYYCARGGNYISFPMYYWGQGTLVTVSS VL: EIVMTQSPATLSVSPGERATLSCKASRGVSTALAWYQQKPGQAPRLLIYWASTRATGIPARFSGSGSGTEFTLTISSLQSEDFAVYYCQQHYDTPYTFGQGTKLEIKR    binds
